B1: EHEE_rd3_0053 (parent)
chain: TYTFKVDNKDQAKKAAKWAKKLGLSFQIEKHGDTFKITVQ

variants of: B1; test: folding stability dG (cDNA display proteolysis); higher = more stable; details: PBS, room temperature
reportedProperty: folding stability dG
Answer format: value, then unit.

[[record]]
variantdesignation = "L24R"
observedvalue = "1.15 kcal/mol"

[[record]]
variantdesignation = "K20V"
observedvalue = "1.98 kcal/mol"

[[record]]
variantdesignation = "Y2M"
observedvalue = "2.08 kcal/mol"


List folding stability dG for every entry below, keeping the order given.
1. T34W
2. W18V
3. K30H
4. D33I
5. V39N

Resp:
1. 2.72 kcal/mol
2. 1.36 kcal/mol
3. 1.91 kcal/mol
4. 1.91 kcal/mol
5. -0.981 kcal/mol

I would be grateful if you could provide folding stability dG for each of the following entries.
1. S25P
2. K20Q
3. F4L
4. K17C
5. K13Q
6. Q27I
7. A19T
8. E29D

Resp:
["1.97 kcal/mol", "2.3 kcal/mol", "1.38 kcal/mol", "2.6 kcal/mol", "2.3 kcal/mol", "2.67 kcal/mol", "0.316 kcal/mol", "1.93 kcal/mol"]
